Measured inhibition, listed per entry for reference.
target: Protein kinase C iota type (Homo sapiens); conditions: at 1 µM;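 further: reported figures are mean inhibition values from the GSK PKIS screen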
Write the answer as a number in %, unit excluded.

Prompt: Sample "COC(=O)c1cncc(/C=C/c2c(C)cc(O)cc2C)c1" — what was its inhibition?
Response: 0.49

Prompt: Sample "Cc1ccc2c(-c3ccnc(Nc4ccc5c(c4)OCCO5)n3)c(-c3ccc(C(F)(F)F)cc3)nn2n1" — what was its inhibition?
Response: 1.15

Prompt: Sample "Cc1ccc(Nc2ccnc(Nc3cccc(C(N)=O)c3)n2)cc1O" — what was its inhibition?
Response: -0.31

Continuing:
Prompt: Sample "O=C(Nc1ccc(Oc2ccc3[nH]c(NC(=O)c4ccco4)nc3c2)cc1)Nc1cc(C(F)(F)F)ccc1F" — what was its inhibition?
Response: -0.83

Prompt: Sample "CCS(=O)(=O)c1ccc(OC)c(Nc2nccc(N(C)c3ccc4c(C)n[nH]c4c3)n2)c1" — what was its inhibition?
Response: 2.66

====

molecular target: Misshapen-like kinase 1 (Homo sapiens) (UniProt Q8N4C8); conditions: at 1 µM
Sequence (Q8N4C8 whole entry, looked up): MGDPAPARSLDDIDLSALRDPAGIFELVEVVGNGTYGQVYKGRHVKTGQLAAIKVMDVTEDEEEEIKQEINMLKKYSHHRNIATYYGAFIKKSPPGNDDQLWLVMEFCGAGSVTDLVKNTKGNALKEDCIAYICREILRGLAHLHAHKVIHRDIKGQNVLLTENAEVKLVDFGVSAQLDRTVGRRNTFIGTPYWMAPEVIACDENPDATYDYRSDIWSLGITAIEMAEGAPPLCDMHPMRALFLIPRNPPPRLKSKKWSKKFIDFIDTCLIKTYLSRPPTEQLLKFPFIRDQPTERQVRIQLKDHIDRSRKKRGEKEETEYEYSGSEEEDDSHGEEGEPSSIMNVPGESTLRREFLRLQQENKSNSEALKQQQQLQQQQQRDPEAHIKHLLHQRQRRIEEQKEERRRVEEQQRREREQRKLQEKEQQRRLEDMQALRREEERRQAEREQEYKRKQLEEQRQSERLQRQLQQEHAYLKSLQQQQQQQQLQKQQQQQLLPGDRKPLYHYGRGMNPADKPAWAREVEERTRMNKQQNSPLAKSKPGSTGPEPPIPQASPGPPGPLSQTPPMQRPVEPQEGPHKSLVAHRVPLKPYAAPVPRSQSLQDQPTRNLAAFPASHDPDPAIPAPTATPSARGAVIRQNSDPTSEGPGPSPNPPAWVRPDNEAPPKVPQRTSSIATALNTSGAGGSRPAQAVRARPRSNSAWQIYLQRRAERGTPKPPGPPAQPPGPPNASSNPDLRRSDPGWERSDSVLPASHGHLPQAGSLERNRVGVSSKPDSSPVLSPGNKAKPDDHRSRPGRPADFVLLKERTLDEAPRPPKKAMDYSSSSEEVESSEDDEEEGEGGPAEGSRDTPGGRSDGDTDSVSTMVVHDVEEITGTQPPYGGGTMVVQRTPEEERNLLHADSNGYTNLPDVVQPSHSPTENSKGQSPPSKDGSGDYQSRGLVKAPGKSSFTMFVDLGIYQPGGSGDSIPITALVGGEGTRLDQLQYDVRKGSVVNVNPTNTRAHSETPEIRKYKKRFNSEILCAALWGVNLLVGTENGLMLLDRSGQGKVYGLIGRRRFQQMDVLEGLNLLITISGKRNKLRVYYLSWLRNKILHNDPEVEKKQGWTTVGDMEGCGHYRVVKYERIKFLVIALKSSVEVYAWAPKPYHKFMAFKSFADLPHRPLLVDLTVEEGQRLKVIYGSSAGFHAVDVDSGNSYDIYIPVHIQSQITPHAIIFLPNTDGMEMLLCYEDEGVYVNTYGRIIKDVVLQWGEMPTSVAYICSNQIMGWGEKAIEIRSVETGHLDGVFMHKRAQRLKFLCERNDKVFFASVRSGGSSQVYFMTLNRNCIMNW
Description: GSK_PKIS: MINK mean inhibition at 1 uM [Nanosyn]
Reported inhibition maps to class as: 1 (below 6%), 2 (6% to below 20%), 3 (20% or more)

Completed entries (count: 3):
Prompt: Hi, small favor: classify "N#Cc1cccc(Nc2nccc(-c3cnn4ncccc34)n2)c1" by its inhibition when you get a moment.
Response: 3

Prompt: Hi, small favor: classify "OCc1ccc(-c2nc(-c3ccccn3)c(-c3ccc4c(c3)OCO4)[nH]2)cc1" by its inhibition when you get a moment.
Response: 2

Prompt: Hi, small favor: classify "Cc1ccc(O)cc1Nc1ccnc2ccc(S(C)(=O)=O)cc12" by its inhibition when you get a moment.
Response: 3

Continuing:
Prompt: Hi, small favor: classify "CCOc1nccc2c1nc(-c1nonc1N)n2CC" by its inhibition when you get a moment.
Response: 2

Prompt: Hi, small favor: classify "CCn1c(-c2nonc2N)nc2ccc(F)cc21" by its inhibition when you get a moment.
Response: 2

Prompt: Hi, small favor: classify "Cc1ccc(NC(=O)CC2CC2)cc1-c1ccc(C(=O)NCC2CC2)cc1" by its inhibition when you get a moment.
Response: 1

Prompt: Hi, small favor: classify "COc1cc(Nc2nccc(-c3cnn4ncccc34)n2)cc(OC)c1" by its inhibition when you get a moment.
Response: 3

Prompt: Hi, small favor: classify "Nc1nccc(-c2c(-c3ccc(F)cc3)nn3cc(C(F)(F)F)ccc23)n1" by its inhibition when you get a moment.
Response: 1

Prompt: Hi, small favor: classify "NS(=O)(=O)c1cccc(-c2cc3ccncc3cc2OCc2ccccc2)c1" by its inhibition when you get a moment.
Response: 2

Prompt: Hi, small favor: classify "Cc1ccc(Nc2ccnc(Nc3cccc(C(N)=O)c3)n2)cc1O" by its inhibition when you get a moment.
Response: 3

Prompt: Hi, small favor: classify "Nc1nccc(-c2c(-c3ccc(F)cc3)ncn2CCCN2CCOCC2)n1" by its inhibition when you get a moment.
Response: 2

Prompt: Hi, small favor: classify "O=S(=O)(CCOCc1ccc(-c2ccc3ncnc(Nc4ccc(OCc5cccc(F)c5)c(Cl)c4)c3c2)o1)c1ccccc1" by its inhibition when you get a moment.
Response: 1

Prompt: Hi, small favor: classify "O=C1Nc2ccc(-c3cccnc3)cc2C1=Cc1cc(Br)c(O)c(Br)c1" by its inhibition when you get a moment.
Response: 3

Prompt: Hi, small favor: classify "Nc1ccc(C#Cc2cncnc2Nc2ccc(OCc3cccc(F)c3)c(Cl)c2)cc1" by its inhibition when you get a moment.
Response: 1

Prompt: Hi, small favor: classify "NS(=O)(=O)c1ccc(NC=C2C(=O)Nc3ccc4ncsc4c32)cc1" by its inhibition when you get a moment.
Response: 3

Prompt: Hi, small favor: classify "CN(c1ccc(NC(=O)Nc2ccc(OC(F)(F)F)cc2)cc1)c1ccnc(Nc2cccc(S(N)(=O)=O)c2)n1" by its inhibition when you get a moment.
Response: 3

Prompt: Hi, small favor: classify "NS(=O)(=O)c1cccc(Nc2cc(-c3ccc(F)cc3)n[nH]2)c1" by its inhibition when you get a moment.
Response: 3

Prompt: Hi, small favor: classify "C[C@@H](Oc1cc(-n2cnc3ccc(OC[C@@H](O)CO)cc32)sc1C(N)=O)c1ccccc1Cl" by its inhibition when you get a moment.
Response: 1

Prompt: Hi, small favor: classify "CN(C)CCCn1c(-c2nonc2N)nc2cnccc21" by its inhibition when you get a moment.
Response: 2

Each recorded value in this set is attributed to ChEMBL document CHEMBL1961873.
